- target or system: HDAC5 (Homo sapiens)
- Sequence (Q9UQL6 656-1122 limits assumed): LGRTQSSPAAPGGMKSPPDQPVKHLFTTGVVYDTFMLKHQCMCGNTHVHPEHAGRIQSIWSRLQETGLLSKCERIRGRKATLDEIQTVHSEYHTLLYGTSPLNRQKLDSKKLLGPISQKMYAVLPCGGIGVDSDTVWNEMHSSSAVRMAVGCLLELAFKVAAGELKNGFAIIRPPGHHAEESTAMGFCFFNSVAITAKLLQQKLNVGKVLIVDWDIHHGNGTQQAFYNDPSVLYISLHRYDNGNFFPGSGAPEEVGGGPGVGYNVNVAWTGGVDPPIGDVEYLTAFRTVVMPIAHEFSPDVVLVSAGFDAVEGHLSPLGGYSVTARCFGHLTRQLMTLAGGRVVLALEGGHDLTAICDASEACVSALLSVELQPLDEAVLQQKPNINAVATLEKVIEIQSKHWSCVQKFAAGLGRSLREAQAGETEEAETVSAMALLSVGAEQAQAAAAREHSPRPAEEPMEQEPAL
pIC50: −log10 of the molar value.
# if value of pIC50 reaches 6, tag class 1; if it stays below, tag class 0

*Q* For this compound, is measured pIC50 6 or higher? `CN(C)S(=O)(=O)c1cccc(-c2nnn(Cc3ccc(C(=O)NO)cc3)n2)c1`
*A* class 0

*Q* For this compound, is measured pIC50 6 or higher? `O=C(NO)c1ccc(Cc2nnc(-c3ccc(F)cc3F)o2)cc1`
*A* class 0

*Q* For this compound, is measured pIC50 6 or higher? `Cn1c(Sc2c(F)cc(C(=O)NO)cc2F)nnc1-c1cccs1`
*A* class 0

*Q* For this compound, is measured pIC50 6 or higher? `O=C(NO)c1cc(F)c(Cn2nnc(-c3ccco3)n2)c(F)c1`
*A* class 1

*Q* For this compound, is measured pIC50 6 or higher? `O=C(NO)c1ccc(Cn2nnc(-c3ccc(C(F)(F)F)cc3)n2)cc1`
*A* class 0

*Q* For this compound, is measured pIC50 6 or higher? `O=C(NO)c1ccc(Cn2nnc(-c3cccs3)n2)cc1`
*A* class 0

*Q* For this compound, is measured pIC50 6 or higher? `O=C(NO)c1cc(F)c(Cn2nnnc2-c2ccccn2)c(F)c1`
*A* class 1

###

Please respond with reported pIC50 for every item in the list.
- target or system: recombinant human HDAC6 (Homo sapiens, UniProt Q9UBN7)
- Sequence (Q9UBN7 1-1215): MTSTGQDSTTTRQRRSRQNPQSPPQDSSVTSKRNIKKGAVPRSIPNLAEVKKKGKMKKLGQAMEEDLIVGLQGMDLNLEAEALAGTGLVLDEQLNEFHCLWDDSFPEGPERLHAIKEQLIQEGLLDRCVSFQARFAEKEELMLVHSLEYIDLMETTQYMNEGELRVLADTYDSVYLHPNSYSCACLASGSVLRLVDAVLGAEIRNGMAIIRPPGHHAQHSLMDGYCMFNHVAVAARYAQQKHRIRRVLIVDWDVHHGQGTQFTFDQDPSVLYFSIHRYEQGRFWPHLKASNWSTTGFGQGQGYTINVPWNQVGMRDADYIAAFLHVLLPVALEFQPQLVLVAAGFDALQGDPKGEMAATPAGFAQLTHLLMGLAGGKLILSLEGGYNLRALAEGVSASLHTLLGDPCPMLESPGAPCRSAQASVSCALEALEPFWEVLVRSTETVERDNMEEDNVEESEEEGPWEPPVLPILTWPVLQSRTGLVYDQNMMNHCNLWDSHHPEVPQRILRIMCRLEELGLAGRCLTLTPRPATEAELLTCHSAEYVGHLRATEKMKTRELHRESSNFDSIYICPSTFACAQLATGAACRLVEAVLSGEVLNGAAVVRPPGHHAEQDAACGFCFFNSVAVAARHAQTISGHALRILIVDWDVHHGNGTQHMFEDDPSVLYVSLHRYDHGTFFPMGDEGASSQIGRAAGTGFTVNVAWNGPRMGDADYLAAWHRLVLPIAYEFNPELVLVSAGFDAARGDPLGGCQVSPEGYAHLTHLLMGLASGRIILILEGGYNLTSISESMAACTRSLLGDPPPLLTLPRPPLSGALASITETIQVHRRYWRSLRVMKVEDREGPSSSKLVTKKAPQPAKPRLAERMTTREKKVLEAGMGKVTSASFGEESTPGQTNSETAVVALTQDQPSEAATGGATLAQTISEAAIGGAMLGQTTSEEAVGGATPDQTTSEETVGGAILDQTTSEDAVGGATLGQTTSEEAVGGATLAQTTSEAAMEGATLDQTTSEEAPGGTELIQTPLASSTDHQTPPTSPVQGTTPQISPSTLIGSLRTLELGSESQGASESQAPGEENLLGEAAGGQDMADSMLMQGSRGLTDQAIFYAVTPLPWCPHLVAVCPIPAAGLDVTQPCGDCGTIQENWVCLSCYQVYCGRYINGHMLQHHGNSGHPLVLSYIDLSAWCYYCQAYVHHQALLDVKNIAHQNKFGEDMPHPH
- test summary: Enzymatic screening on recombinant human HDAC6
- Type: biochemical
- settings: Table 2; read-out: HDAC6 IC50
In textbook form, pIC50 equals minus log to base ten of the concentration in mol/L.

Record O=C(NO)c1cc(F)c(Sc2nnc(-c3cccs3)n2Cc2ccco2)c(F)c1 [comp. 144] , field pIC50: 7.92

Record Cc1nc(N2CCOCC2)sc1-c1nnc(Sc2c(F)cc(C(=O)NO)cc2F)n1C [comp. 9] , field pIC50: 7.10

Record O=C(NO)c1cc(F)c(Sc2nnc(-c3cccnc3)n2Cc2ccco2)c(F)c1 [comp. 147] , field pIC50: 7.80

Record O=C(NO)c1cc(F)c(Cn2nnc(-c3ccc(C(F)(F)F)cn3)n2)c(F)c1 [comp. 128] , field pIC50: 7.35

Record CSc1sc(-c2nnn(Cc3ccc(C(=O)NO)cc3)n2)c2c1C(=O)CC(C)(C)C2 [comp. 54] , field pIC50: 7.74

Record O=C(NO)c1cc(F)c(Sc2nnc(-c3ccccc3)o2)c(F)c1 [comp. 192] , field pIC50: 7.51

Record Nn1c(Sc2ccc(C(=O)NO)cc2)nnc1-c1ccc(OC(F)F)cc1 [comp. 28] , field pIC50: 8.00

Record COCCN(CCOC)c1cncc(-c2nc(Cc3c(F)cc(C(=O)NO)cc3F)no2)c1 [compound 200] , field pIC50: 8.10

Record Cn1c(Sc2c(F)cc(C(=O)NO)cc2F)nnc1-c1sc2ncccc2c1N [comp. 99] , field pIC50: 8.15

Values from patent US11351178B2
